# System: COLO 205
# Assay Info: NCI tumour cell line growth inhibition, 48 h
Active and inactive are the calls of the source. Rule as the data show it: active = GI50 up to about 1.1 µM and inactive = higher.
The reply should be one of these categories: y = active, n = inactive

• Cc1ccc2c(=O)c(C(=O)NNC(=S)NC3CCCCC3)c[nH]c2n1 = n
• COc1cc(CCN(C)C)cc(OC)c1OC = n

State the result this test recorded for O=[N+]([O-])c1cccc2nccc(NCCCO)c12 . n

State the result this test recorded for O=C(Cn1cc(F)c(=O)[nH]c1=O)C12CC3CC(CC(C3)C1)C2 . n

State the result this test recorded for CCOC(=O)/C=C\C(C#N)(C#N)/N=C/c1ccsc1 . n

State the result this test recorded for CCOC(=O)C1=C(c2ccccc2)C12N(Cc1ccccc1)C(=O)C2(c1ccccc1)c1ccccc1 (stereo unspecified) . n

State the result this test recorded for OC1COC(OCc2ccccc2)C(O)C1O (stereo unspecified) . n

State the result this test recorded for CC1C2CC(CC(=O)N2)C1(C)C (stereo unspecified) . n

State the result this test recorded for CC(=O)N1N=C(N)CC1=O . n

State the result this test recorded for CCOc1ccc(NC2=CC(=O)C(=O)c3ccccc32)cc1 . n

State the result this test recorded for CN(C)C(=O)O/N=C1/C(=C2/C(=O)Nc3ccccc32)Nc2ccccc21 . n

---

# Test system: EKVX
# Assay Info: NCI tumour cell line growth inhibition, 48 h
Active and inactive are the calls of the source. No stated cut-off is given here; in the data, active = GI50 up to about 1.1 µM and inactive = higher.
Measured GI50, listed per entry for reference.

- N#CI1OC(C(F)(F)F)(C(F)(F)F)c2ccccc21: 14.6 µM (inactive)
- O=C(NN1C(=O)CSC1c1ccc(Cl)c(Cl)c1)c1ccncc1 (stereo unspecified): > 100 µM (inactive)
- COc1ccc(-c2nc3ccccc3c(=S)n2OC(C)=O)cc1: 6.46 µM (inactive)

May I ask what GI50 has been recorded for Cc1ccc(/C=C2/N/C(=N\N=C/C(O)C(O)C(O)C(O)CO)NC2=O)cc1 (stereo unspecified) ? > 100 µM (inactive)

May I ask what GI50 has been recorded for O=[N+]([O-])c1cccc2nccc(NCCCO)c12 ? 6.79 µM (inactive)

May I ask what GI50 has been recorded for CC(C)=CCc1c(O)ccc2c1OC1c3ccc(O)c(CC=C(C)C)c3OCC21 (stereo unspecified) ? 5.62 µM (inactive)

---

# Tested on: OVCAR-4
# Assay Info: NCI tumour cell line growth inhibition, 48 h
Active and inactive are the calls of the source. No stated cut-off is given here; in the data, active = GI50 up to about 1.1 µM and inactive = higher.
The reply should be one of these categories: label 1 = active, label 0 = inactive

Past entries and their recorded results:
* CCCCCCCCCCCCCCCCNc1ccc2c(c1)OCCOCCOCCOCCO2 | label 0
* Cc1ccc(Oc2ccc(C)cc2[N+](=O)[O-])cc1 | label 0
* CC(=O)OCc1c2ccccc2c(C)c2c1cc(F)c1ccccc12 | label 0
* CCN(CC)CCCNc1nccc2c(C)c3[nH]c4ccncc4c(=O)c3cc12 | label 1
* CC1(C)S[C@@H]2[C@H](NC(=O)CCC[C@@H](N)C(=O)O)C(=O)N2[C@H]1C(=O)O | label 0

State the result this test recorded for Clc1nc(Cl)c(CBr)c(Cl)n1 . label 0

State the result this test recorded for CC[C@]1(Cc2ccc(OC)c(OC)c2)C=[N+]([O-])O[C@H](OCc2ccccc2)[C@@H]1OC(C)=O . label 0

State the result this test recorded for Nc1nc(N)c2c(n1)NC(c1ccccc1)CC(/C=C/c1ccc(Cl)cc1)=N2 (stereo unspecified) . label 0

State the result this test recorded for CC(=O)N1N=C(N)CC1=O . label 0

State the result this test recorded for COc1cc(/C=C/c2ccccn2)cc(OC)c1OC . label 0

State the result this test recorded for NC1=NC(=O)/C(=C/c2ccccc2[N+](=O)[O-])C(N)=N1 . label 0

---

Measured GI50, listed per entry for reference.
# Test system: SK-OV-3
# Assay Info: NCI tumour cell line growth inhibition, 48 h
Active and inactive are the calls of the source. Cut-off read from the data, not from the text of the source: active = GI50 up to about 1.1 µM and inactive = higher.

In the examples that follow, each entry is paired with its recorded GI50.
- O=C1OC(c2ccccc2)=N/C1=C\c1cn[nH]n1: > 100 µM (inactive)
- N#CI1OC(C(F)(F)F)(C(F)(F)F)c2ccccc21: > 100 µM (inactive)
- O=c1c2c([nH]c3cc4c(cc13)OCO4)-c1ccccc1C2: 31.3 µM (inactive)
- O=C1CC(=O)c2c(N3CCCC3)sc(N3CCCC3)c21: > 100 µM (inactive)
- COC(=N)c1ncn(Cc2ccccc2)c1N: > 100 µM (inactive)

Next up:
May I ask what GI50 has been recorded for C=CCNC(=O)C(C)C1CCC2(C)C=CC(=O)C(C)=C2C1O (stereo unspecified) ? > 100 µM (inactive)

---

# Tested on: PC-3
# Assay Info: NCI tumour cell line growth inhibition, 48 h
Activity calls are given as the source filed them. Cut-off read from the data, not from the text of the source: active = GI50 up to about 1.1 µM and inactive = higher.
Experimental Readout: GI50

In the examples that follow, each entry is paired with its recorded GI50.
• O[C@@H]1CCC[C@@H]2NC[C@@H](c3ccc4c(c3)OCO4)[C@H]12 = > 100 µM (inactive)
• O=C1C=C(Nc2ccccc2C(=O)CC(=O)C(=O)Nc2cccc(C(F)(F)F)c2)c2ccccc2C1=O = 17.9 µM (inactive)
• O=C(Nn1c(-c2ccccc2)nc2ccccc2c1=O)c1ccc(O)cc1 = > 100 µM (inactive)
• CCOC(=O)c1csc(-c2nc(CCNC(=O)c3ccccc3)sc2Cl)n1 = 32.1 µM (inactive)
• Cc1ccc2nc(N/N=C/c3ccc(C)s3)cc(C)c2c1 = 11.8 µM (inactive)
• CCOC(=O)C1=C(c2ccccc2)C12N(Cc1ccccc1)C(=O)C2(c1ccccc1)c1ccccc1 (stereo not given) = 21.3 µM (inactive)

May I ask what GI50 has been recorded for O=C1c2cscc2C(=O)c2c(OCc3ccccc3)ccc(OCc3ccccc3)c21 ? 78.5 µM (inactive)

May I ask what GI50 has been recorded for CCCCCC(/C=N/Nc1ccccc1)C(O)(C(F)(F)F)C(F)(F)F (stereo not given) ? > 100 µM (inactive)

May I ask what GI50 has been recorded for COc1ccc(N2C(=O)C3ON(C(C(N)=O)c4ccccc4)C(c4cc5ccccc5c5ccccc45)C3C2=O)cc1 (stereo not given) ? 30.7 µM (inactive)

May I ask what GI50 has been recorded for O=C1C=Cc2cscc21 ? 42 µM (inactive)

---

# Tested on: MOLT-4
# Assay Info: NCI tumour cell line growth inhibition, 48 h
The source made the active and inactive calls. No stated cut-off is given here; in the data, active = GI50 up to about 1.1 µM and inactive = higher.
The reply should be one of these categories: active, inactive

Past entries and their recorded results:
- CC12CCC3C(CCC4(O)C=CCCC34C=O)C1(O)CC(O)C2c1ccc(=O)oc1 (centres undefined): active
- CC[C@]1(Cc2ccc(OC)c(OC)c2)C=[N+]([O-])O[C@H](OCc2ccccc2)[C@@H]1OC(C)=O: inactive
- CO[C@H]1O[C@@H]2CO[C@@H](c3ccccc3)O[C@H]2[C@@H]2C/C=C\CCC[C@@]12O: inactive
- CCOC1Oc2ccccc2-c2nc(N)ncc21 (centres undefined): inactive
- CC1(C)[C@@H]2CC[C@@]1(C)[C@H](O)[C@@H]2SCc1ccccc1: inactive
- Nc1nc(Cl)c(N)c(NCC2(CO)CCC(CCc3ccccc3)C2)n1 (centres undefined): active
- Cc1ccc(S(=O)OC23CC4CC(CC(C4)C2)C3)cc1 (centres undefined): inactive
- COc1cc(C(=O)OC2CC34CCNC35CC(OC5(OC)C2O)c2cc3c(cc24)OCO3)ccc1O (centres undefined): inactive

From here, focus on the item given below.
State the result this test recorded for C/C=C/c1cc(=O)c([C@@H]2OC(=O)c3cc(OC)cc(OC)c32)co1 . inactive

---

# System: TK-10
# Assay Info: NCI tumour cell line growth inhibition, 48 h
Activity calls are given as the source filed them. No stated cut-off is given here; in the data, active = GI50 up to about 1.1 µM and inactive = higher.
Experimental Readout: GI50

• Oc1ccc(O)c(CNc2ccccc2)c1 = 22.7 µM (inactive)

May I ask what GI50 has been recorded for O=C1CSC(c2c[nH]c3ccccc23)N1c1ccccc1[N+](=O)[O-] (stereo not given) ? > 100 µM (inactive)

May I ask what GI50 has been recorded for O=C(Oc1c(Br)cc(Br)cc1C(=O)Oc1ccccc1)C(=O)Oc1c(Br)cc(Br)cc1C(=O)Oc1ccccc1 ? 49.2 µM (inactive)

May I ask what GI50 has been recorded for COc1ccc(CCNCc2cccc(OC)c2OC)cc1OC ? > 100 µM (inactive)

May I ask what GI50 has been recorded for CC(C)(C)OC(=O)NC(Cc1ccc(OCc2ccccc2)cn1)C(=O)NCc1ccccc1 (stereo not given) ? 30.3 µM (inactive)

---

# System: TK-10
# Assay Info: NCI tumour cell line growth inhibition, 48 h
Calls of active or inactive are those of the source. Cut-off read from the data, not from the text of the source: active = GI50 up to about 1.1 µM and inactive = higher.
Experimental Readout: GI50

• O[C@@H]1CCC[C@@H]2NC[C@@H](c3ccc4c(c3)OCO4)[C@H]12 = > 100 µM (inactive)
• CC(=O)OCc1c2ccccc2c(C)c2c1cc(F)c1ccccc12 = > 100 µM (inactive)
• COc1cc2cc(C(=O)N3CC(CCl)c4c3cc(NC(=O)C(C)(C)c3ccccc3[N+](=O)[O-])c3ccccc43)[nH]c2c(OC)c1OC (stereo not drawn) = 8.87 µM (inactive)
• Cn1nc(-c2ccccc2)c(C(=O)/C=C/c2ccc(F)cc2)c(N2CCOCC2)c1=O = 28.6 µM (inactive)
• CC(C)(C)c1ccc(O)c(C[N+](C)(C)C)c1 = > 100 µM (inactive)

Hello, I am looking for reported GI50 with TK-10 for O=P(c1ccccc1)(c1ccccc1)C1CC=C(c2ccccc2)C2(CCCC2)C1 (stereo not drawn) . Could you help? 72.3 µM (inactive)

Hello, I am looking for reported GI50 with TK-10 for CCOC(=O)c1c(N2CCOCC2)[nH]c(=O)c(C(c2c(Cl)cccc2Cl)c2c(O)c(C(=O)OCC)c(N3CCOCC3)[nH]c2=O)c1O . Could you help? 4.66 µM (inactive)

Hello, I am looking for reported GI50 with TK-10 for COC(=O)C1=C(OC(=O)/C(=C/c2ccc(Cl)cc2)c2ccc(Cl)cc2)C(C(=O)OC)[C@]2(O)[C@@H](C(=O)OC)[C@H]1C[C@@H](c1ccccc1)[C@@H]2C(=O)OC (stereo partly drawn) . Could you help? > 100 µM (inactive)

FYI, the data here is from ChEMBL document CHEMBL1201862.
